- Tested on: P. aeruginosa 10145
- test.protocol: Bacterial MIC, broth microdilution, CLSI
- Format: cell-based
- measurement.parameters: Pseudomonas aeruginosa, 10145; read-out: PA (MIC)
readout.kind: MIC (µg/mL)

# example entries with known answers
N=C(N)NCCCOc1cc(OCCCNC(=N)N)cc(-c2ccc3c(c2)c2cc(-c4cc(OCCCNC(=N)N)cc(OCCCNC(=N)N)c4)ccc2n3CCCNC(=N)N)c1 = 50
NCCCOc1cc(OCCCN)cc(-c2ccc3c4ccc(Br)cc4n(CCCN)c3c2)c1 = 12.5
NCCCOc1ccc(-c2ccc3c4ccc(-c5ccc(OCCCN)cc5)cc4n(CCCN)c3c2)cc1 = 3.13
NCCN(CCN)Cc1cccc(-c2ccc3[nH]c4ccc(-c5cccc(CN(CCN)CCN)c5)cc4c3c2)c1 = 25
NCCN(CCN)c1cccc(-c2ccc3[nH]c4ccc(-c5cccc(N(CCN)CCN)c5)cc4c3c2)c1 = 12.5
NCCCc1cccc(-c2ccc3c4ccc(-c5cccc(CCCN)c5)cc4n(CCN)c3c2)c1 = 3.13
NCCCOc1cccc(-c2ccc3c4ccc(-c5cccc(OCCCN)c5)cc4n(CCCN)c3c2)c1 = 3.13
CCn1c2ccc(-c3cccc(N(CCN)CCN)c3)cc2c2cc(-c3cccc(N(CCN)CCN)c3)ccc21 = 12.5
NCCCn1c2cc(Br)ccc2c2ccc(Br)cc21 = 100
NCCCn1c2cc(-c3cccc(CCN)c3)ccc2c2ccc(-c3cccc(CCN)c3)cc21 = 3.13

a: NCCCn1c2cc(-c3cc(CCN)cc(CCN)c3)ccc2c2ccc(-c3cc(CCN)cc(CCN)c3)cc21
b: N=C(N)NCCCn1c2cc(-c3cc(CCNC(=N)N)cc(CCNC(=N)N)c3)ccc2c2ccc(-c3cc(CCNC(=N)N)cc(CCNC(=N)N)c3)cc21
Out of a and b , name the one with the higher MIC. Output the label that corresponds to your choice. a
(a: 50 µg/mL, b: 3.13 µg/mL)

a: NCCCOc1cc(OCCCN)cc(-c2ccc3c(c2)c2ccccc2n3CCCN)c1
b: NCCCn1c2cc(-c3cccc(OCCN)c3)ccc2c2ccc(-c3cccc(OCCN)c3)cc21
Out of a and b , name the one with the higher MIC. Output the label that corresponds to your choice. a
(a: 50 µg/mL, b: 6.25 µg/mL)

###

- Tested on: C. albicans GDH2346
- test.protocol: Candida IC50, vegetative cells, by OD600 and fluorescence
- Assay type: cell-based
- measurement.parameters: Candida albicans, GDH2346; vegetative cultures; read-out: Anti-C. albicans GDH2346 Vegetative (IC50)
readout.kind: IC50 (µg/mL)

# example entries with known answers
NCCCOc1cc(OCCCN)cc(-c2ccc3c(c2)c2cc(-c4cc(OCCCN)cc(OCCCN)c4)ccc2n3CCCN)c1 [Compound 135] = 1.44
NCCc1cc(Br)cc(C#Cc2cccc(C#Cc3cc(Br)cc(CCN)c3)c2)c1 [Compound 164] = 4.88
N=C(N)NCCc1cccc(-c2ccc(-c3cccc(CCNC(=N)N)c3)s2)c1 [Compound 185] = 1.09

P: N=C(N)NCCc1cccc(-c2ccc(-c3cccc(CCNC(=N)N)c3)cc2)c1 [Compound 186]
Q: N=C(N)N1CCN(c2ccc(-c3cc(-c4ccc(N5CCN(C(=N)N)CC5)cc4)ncn3)cc2)CC1 [Compound 136]
Out of P and Q , name the one with the higher IC50. Output the label that corresponds to your choice. Q

###

- Tested on: human transformed liver HepG2 cells
- test.protocol: Cytotoxicity, MTS viability assay
- Assay type: cell-based
- measurement.parameters: Homo sapiens, HepG2; cytotoxicity
readout.kind: IC50 (µM)
A number alone suffices; assume µM.

Recorded IC50 of NCCCOc1cc(OCCCN)cc(-c2ccc3c(c2)c2cc(-c4cc(OCCCN)cc(OCCCN)c4)ccc2n3CCCN)c1 , please. 885

###

- Tested on: E. coli 25922
readout.kind: MIC (µg/mL)

NCCCOc1cccc(-c2ccc3c4ccc(-c5cccc(OCCCN)c5)cc4n(CCCN)c3c2)c1 = 0.78
NCCCOc1cc(OCCCN)cc(-c2ccc3c4ccc(-c5cc(OCCCN)cc(OCCCN)c5)cc4n(CCCN)c3c2)c1 = 3.13
NCCCn1c2cc(-c3cccc(OCCN)c3)ccc2c2ccc(-c3cccc(OCCN)c3)cc21 = 3.13

a: N=C(N)NCCCOc1cc(OCCCNC(=N)N)cc(-c2ccc3c(c2)c2cc(-c4cc(OCCCNC(=N)N)cc(OCCCNC(=N)N)c4)ccc2n3CCCNC(=N)N)c1
b: CCn1c2ccc(-c3cc(OCCCN)cc(OCCCN)c3)cc2c2cc(-c3cc(OCCCN)cc(OCCCN)c3)ccc21
c: NCCCn1c2cc(Br)ccc2c2ccc(Br)cc21
Arrange items by their MIC values in increasing order. Record the ranking as a list of labels in the requested order. b, a, c

###

- System: E. faecalis 29212
readout.kind: MIC (µg/mL)

NCCCOc1cc(OCCCN)cc(-c2ccc3c4ccc(Br)cc4n(CCCN)c3c2)c1 [Compound 146] = 0.39
NCCCOc1cc(OCCCN)cc(-c2ccc3c4ccc(-c5cc(OCCCN)cc(OCCCN)c5)cc4n(CCCN)c3c2)c1 [Compound 143] = 1.56

a: N=C(N)NCCCOc1cc(OCCCNC(=N)N)cc(-c2ccc3c(c2)c2cc(-c4cc(OCCCNC(=N)N)cc(OCCCNC(=N)N)c4)ccc2n3CCCNC(=N)N)c1 [Compound 163]
b: NCCCn1c2cc(-c3cccc(N)c3)ccc2c2ccc(-c3cccc(N)c3)cc21 [Compound 153]
Returns: the label, a or b , whose recorded MIC is the lower number. Output the label that corresponds to your choice. a

P: N=C(N)NCCCn1c2cc(-c3cc(CCNC(=N)N)cc(CCNC(=N)N)c3)ccc2c2ccc(-c3cc(CCNC(=N)N)cc(CCNC(=N)N)c3)cc21 [Compound 162]
Q: NCCCc1cccc(-c2ccc3c4ccc(-c5cccc(CCCN)c5)cc4n(CCN)c3c2)c1 [Compound 140]
R: NCCCOc1cccc(-c2ccc3c4ccc(-c5cccc(OCCCN)c5)cc4n(CCCN)c3c2)c1 [Compound 150]
S: NCCCn1c2cc(-c3cccc(CCN)c3)ccc2c2ccc(-c3cccc(CCN)c3)cc21 [Compound 144]
T: CCn1c2ccc(-c3cc(OCCCN)cc(OCCCN)c3)cc2c2cc(-c3cc(OCCCN)cc(OCCCN)c3)ccc21 [Compound 147]
Output the entries ranked by MIC from maximum down to minimum. Record the ranking as a list of labels in the requested order. P, Q, R, T, S

I: NCCCOc1cc(OCCCN)cc(-c2ccc3c(c2)c2ccccc2n3CCCN)c1 [Compound 145]
II: N=C(N)NCCCCCc1cccc(-c2ccc3c4ccc(-c5cccc(CCCNC(=N)N)c5)cc4n(CCCNC(=N)N)c3c2)c1 [Compound 142]
III: NCCCn1c2cc(-c3cccc(O)c3)ccc2c2ccc(-c3cccc(O)c3)cc21 [Compound 149]
Arrange items by their MIC values in increasing order. Record the ranking as a list of labels in the requested order. III, I, II

###

- Test system: mouse 3T3 fibroblasts
- test.protocol: Cytotoxicity, MTS viability assay
- Format: cell-based
readout.kind: EC50 (µM)
A number alone suffices; assume µM.

Recorded EC50 of NCCCn1c2cc(-c3ccc(CCN)c(CCN)c3)ccc2c2ccc(-c3ccc(CCN)c(CCN)c3)cc21 , please. 61

###

- Test system: P. aeruginosa 10145
- test.protocol: Bacterial MIC, broth microdilution, CLSI
- Type: cell-based
- measurement.parameters: Pseudomonas aeruginosa; P. aeruginosa 10145
readout.kind: EC50 (µg/mL)

A: NCCSc1cc(SCCN)c(C(F)(F)F)cc1NC(=O)c1cc(C(=O)Nc2cc(C(F)(F)F)c(SCCN)cc2SCCN)ncn1 [Compound 100]
B: N=C(N)N1CCN(c2ccc(-c3cc(-c4ccc(N5CCN(C(=N)N)CC5)cc4)ncn3)cc2)CC1 [Compound 136]
Out of A and B , name the one with the higher EC50. Output the label that corresponds to your choice. B

###

MIC tested on E. coli 25922: recorded values
readout.kind: MIC (µg/mL)

# example entries with known answers
CCn1c2ccc(-c3cccc(N(CCN)CCN)c3)cc2c2cc(-c3cccc(N(CCN)CCN)c3)ccc21 = 12.5
NCCCc1cccc(-c2ccc3c4ccc(-c5cccc(CCCN)c5)cc4n(CCN)c3c2)c1 = 0.78
N=C(N)NCCCCCc1cccc(-c2ccc3c4ccc(-c5cccc(CCCNC(=N)N)c5)cc4n(CCCNC(=N)N)c3c2)c1 = 3.13
CCn1c2ccc(-c3cc(C(=O)NCCN)cc(C(=O)NCCN)c3)cc2c2cc(-c3cc(C(=O)NCCN)cc(C(=O)NCCN)c3)ccc21 = 25
NCCCOc1ccc(-c2ccc3c4ccc(-c5ccc(OCCCN)cc5)cc4n(CCCN)c3c2)cc1 = 1.56

1: NCCCn1c2cc(-c3cc(CCN)cc(CCN)c3)ccc2c2ccc(-c3cc(CCN)cc(CCN)c3)cc21
2: NCCCn1c2cc(-c3cccc(O)c3)ccc2c2ccc(-c3cccc(O)c3)cc21
Returns: the label, 1 or 2 , whose recorded MIC is the lower number. Output the label that corresponds to your choice. 1
(1: 1.56 µg/mL, 2: 3.13 µg/mL)
